Experiment description: Metabolic stability in human liver microsomes assessed as peak area after 60 mins by LC-UV analysis in presence of NADPH and GSH
Format: ADME
Applied conditions: read-out: Stability
The entries below come with measured remaining at 1 h values attached.
API: value field is a number in %; no unit string.

Look up remaining at 1 h for this compound: COc1ccc(/C=C\c2cc(OC)c(OC)c(OC)c2)cc1O [COMBRETASTATIN A4]
67

***
Look up remaining at 1 h for this compound: `COc1ccc2c(c1O)NC(=O)CN=C2c1cc(OC)c(OC)c(OC)c1`
97

----------
Experiment description: Metabolic stability in human liver microsomes assessed as peak area after 30 mins by LC-UV analysis in presence of NADPH and UDPGA
Format: ADME
Applied conditions: read-out: Stability
The entries below come with measured remaining at 0.5 h values attached.
API: value field is a number in %; no unit string.

Look up remaining at 0.5 h for this compound: `COc1ccc(/C=C\c2cc(OC)c(OC)c(OC)c2)cc1O`
39

***
Look up remaining at 0.5 h for this compound: `COc1ccc2c(c1O)NC(=O)CN=C2c1cc(OC)c(OC)c(OC)c1`
92

----------
Assay target: Tubulin
Experiment description: Inhibition of tubulin (unknown origin) polymerization by fluorescence assay
Value kind: pIC50
Please keep in mind that pIC50 is minus log10 of the molar concentration; only the number is needed.

Solved cases below.
Look up pIC50 for this compound: `COc1cc(C2=NCC(=O)Nc3cc4c(cc32)OCO4)cc(OC)c1OC`
4.87

Look up pIC50 for this compound: `COc1ccc2c(c1)NC(=O)CN=C2c1cc(OC)c(OC)c(OC)c1`
5.05

Let us examine a further case.
Look up pIC50 for this compound: `COc1ccc2c(c1O)NC(=O)CN=C2c1cc(OC)c(OC)c(OC)c1`
5.89

----------
Experiment description: Metabolic stability in human liver microsomes assessed as peak area after 60 mins by LC-UV analysis in presence of NADPH
Type: ADME
Applied conditions: read-out: Stability
The entries below come with measured remaining at 1 h values attached.
API: value field is a number in %; no unit string.

Look up remaining at 1 h for this molecule: COc1ccc(/C=C\c2cc(OC)c(OC)c(OC)c2)cc1O [COMBRETASTATIN A4]
75

Let us examine a further case.
Look up remaining at 1 h for this molecule: `COc1ccc2c(c1O)NC(=O)CN=C2c1cc(OC)c(OC)c(OC)c1`
96

----------
The entries below come with measured viability at 1 µM values attached.
Experiment description: Cytotoxicity against human SH-SY5Y cells assessed as cell viability at 1 uM after 48 hrs by MTT assay
Type: functional
Applied conditions: read-out: Activity
API: value field is a number in %; no unit string.

Look up viability at 1 µM for this compound: `COc1cc2c(cc1O)C(c1cc(OC)c(OC)c(OC)c1)=NCC(=O)N2`
64.8

Look up viability at 1 µM for this compound: `COc1cc(C2=NCC(=O)Nc3c2ccc(OC)c3OC)cc(OC)c1OC`
46.8

Look up viability at 1 µM for this compound: `COc1cc(C2=NCC(=O)N(C)c3cc4c(cc32)OCO4)cc(OC)c1OC`
46.4

Look up viability at 1 µM for this compound: `COc1ccc2c(c1)NC(=O)CN=C2c1cc(OC)c(OC)c(OC)c1`
24.7

Look up viability at 1 µM for this compound: `COc1cc(C2=NCC(=O)N3COc4c(OC)ccc2c43)cc(OC)c1OC`
95.2

***
Look up viability at 1 µM for this compound: `COc1cc2c(cc1OC)C(c1cc(OC)c(OC)c(OC)c1)=NCC(=O)N2`
102

Look up viability at 1 µM for this compound: COc1ccc(/C=C\c2cc(OC)c(OC)c(OC)c2)cc1O [COMBRETASTATIN A4]
33.4

Look up viability at 1 µM for this compound: `COc1cc(C2=NCC(=O)N(C)c3c2ccc(OC)c3OC)cc(OC)c1OC`
76.4

Look up viability at 1 µM for this compound: `COc1cc(C2=NCC(=O)Nc3cc4c(cc32)OCO4)cc(OC)c1OC`
35.1

Look up viability at 1 µM for this compound: `COc1ccc2c(c1)C(c1cc(OC)c(OC)c(OC)c1)=NCC(=O)N2C`
44.4
